The values you see were collected from patent US20180312591A1.

Catalogue of binders with associated relative IC50 (IC50 of test antibody / IC50 of chimeric antibody)
Target: T1, human integrin β1 (human, UniProt P05556 21-798)
T1 construct: whole, on cells; the antibodies are described as anti-human integrin β1; also called CD29; ITGB1
Experiment: competition FACS on Jurkat cells; competitor murine OS2966 (0.1875 µg/ml)

Worked examples, 2 binders total:
1. composite human antibody variant H19 (antibody, V domains shown, also called VH1VK1) VH: EVQLVQSGPEVKKPGSSVKISCKASGYTFTGYILSWVKQAPGQGLEWIGWVDPEYGSTDSAEKFKKRATLTADISTNTAYIQLSSLRSEDTATYFCTRYYDGYYRRWFAYWGQGTLVTVSS VL: DIQMTQSPSSLSASVGDRVTITCLASEGISNNLAWHQQKPGKAPQLLIYGAHSLHDGVPDRFSGSGSGTDYTLKISGMQPEDEGVYYCQQGYKYPITFGGGTKVEIK	1.13 ratio to chimeric antibody
2. composite human antibody variant H3 (antibody, V domains shown, also called VH4VK4) VH: EVQLVQSGAEVKKPGSSVKVSCKASGYTFTGYILSWVRQAPGQGLEWIGWVDPEYGSTDSAEKFKKRATITADISTSTAYMELSSLRSEDTATYFCTRYYDGYYRRWFAYWGQGTLVTVSS VL: DIQMTQSPSSLSASVGDRVTITCLASEGISNNLAWYQQKPGKAPKLLIYGAHSLHDGVPDRFSGSGSGTDFTLKISRVEAEDVGVYYCQQGYKYPITFGGGTKVEIK	2.7 ratio to chimeric antibody

Turning to the following binder.
Value of measured relative IC50 (IC50 of test antibody / IC50 of chimeric antibody) for the entry composite human antibody variant H13 (antibody, V domains shown, also called VH2VK4) VH: EVQLVQSGAEVKKPGSSVKISCKASGYTFTGYILSWVRQAPGQGLEWIGWVDPEYGSTDSAEKFKKRATLTADISTNTAYIELSSLRSEDTATYFCTRYYDGYYRRWFAYWGQGTLVTVSS VL: DIQMTQSPSSLSASVGDRVTITCLASEGISNNLAWYQQKPGKAPKLLIYGAHSLHDGVPDRFSGSGSGTDFTLKISRVEAEDVGVYYCQQGYKYPITFGGGTKVEIK : 2 ratio to chimeric antibody
